target: Melanocortin receptor 5 (Homo sapiens); assay: Agonist activity at human MC5R expressed in HEK293 cells assessed as induction of intracellular cAMP accumulation after 3 mins; type: functional, cell-based; settings: read-out: EC50
Sequence (P33032 whole entry): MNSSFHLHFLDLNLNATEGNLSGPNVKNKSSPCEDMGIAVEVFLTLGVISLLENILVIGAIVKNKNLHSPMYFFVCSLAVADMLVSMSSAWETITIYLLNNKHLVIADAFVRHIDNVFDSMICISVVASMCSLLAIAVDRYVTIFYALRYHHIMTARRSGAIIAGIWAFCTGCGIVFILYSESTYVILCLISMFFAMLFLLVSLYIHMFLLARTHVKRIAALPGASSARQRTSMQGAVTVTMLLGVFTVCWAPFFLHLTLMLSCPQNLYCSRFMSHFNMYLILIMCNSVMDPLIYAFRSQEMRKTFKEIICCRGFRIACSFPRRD
pEC50: −log10 of the molar value.
result.type: pEC50

I: N=C(N)NCCC[C@@H]1NC(=O)[C@@H](Cc2ccc3ccccc3c2)NC(=O)[C@H](Cc2c[nH]cn2)NC(=O)C2(CCCCC2)NC(=O)C[C@@H](C(N)=O)NC(=O)[C@H](Cc2c[nH]c3ccccc23)NC1=O
II: N=C(N)NCCC[C@@H]1NC(=O)[C@@H](Cc2ccc3ccccc3c2)NC(=O)[C@H](Cc2c[nH]cn2)NC(=O)C2(CCC2)NC(=O)C[C@@H](C(N)=O)NC(=O)[C@H](Cc2c[nH]c3ccccc23)NC1=O
III: N=C(N)NCCC[C@@H]1NC(=O)[C@@H](Cc2ccccc2)NC(=O)[C@H](Cc2c[nH]cn2)NC(=O)C2(CCCCC2)NC(=O)CC[C@@H](C(N)=O)NC(=O)[C@H](Cc2c[nH]c3ccccc23)NC1=O
// rank above by pEC50: first = highest number Lab note: record answer as labels in requested order.
III, I, II
